Assay: Antiproliferative activity against human astrocytes
Assay type: functional, cell-based
Conditions: Astrocyte
Experimental endpoint: IC50 (µM)

- Molecule: "Cc1cc(N2CCCC(CO)(CCCc3ccccc3)C2)nc(N)n1 (stereo unspecified)"
  Experimental endpoint: "IC50"
  Quantitative readout: 5
